experimental-target: DNA gyrase (Escherichia coli, UniProt P0AES4+P0AES6)
assay-method-text: Inhibition of the gyrase mediated cleavage of supercoiled DNA
This listing pairs compounds with measured pIC50.
Please express pIC50 as -log10 of the molar concentration.

Some entries whose results are on file:
NC1CCN(c2nc3c(cc2F)c(=O)c(C(=O)O)cn3-c2ccc(F)cc2F)C1 (stereo not given) [TOSUFLOXACIN] ... 5.13
NC1CCN(c2cc3c(cc2F)c(=O)c(C(=O)O)cn3C2CC2)C1 (stereo not given) ... 5.11
NC1CCN(c2nc3c(cc2F)c(=O)c(C(=O)O)cn3C2CC2)C1 (stereo not given) ... 5.04
NC1C=C(c2cc3c(cc2F)c(=O)c(C(=O)O)cn3C2CC2)CC1 (stereo not given) ... 5.07

Request: Could you share which pIC50 value was measured for `O=C(O)c1cn(C2CC2)c2cc(C3CCNCC3)c(F)cc2c1=O` ?
Response: 4.94

---

Measured MIC accompanies every entry in the list below.
System: Escherichia coli
assay-method-text: Antibacterial activity was tested in vitro against Escherichia coli Vogel using standard microtitration techniques
Assay type: functional
Only the number, expressed in µg/mL, is required.

Past entries and their recorded results:
O=C(O)c1cn(C2CC2)c2nc(C3=CCNCC3)c(F)cc2c1=O ... 0.013
O=C(O)c1cn(-c2ccc(F)cc2F)c2nc(C3=CCNCC3)c(F)cc2c1=O ... 0.1
NC1C=C(c2cc3c(cc2F)c(=O)c(C(=O)O)cn3C2CC2)CC1 (configuration not stated) ... 0.1
O=C(O)c1cn(C2CC2)c2cc(C3=CCNCC3)c(F)cc2c1=O ... 0.025
NC1C=C(c2nc3c(cc2F)c(=O)c(C(=O)O)cn3-c2ccc(F)cc2F)CC1 (configuration not stated) ... 0.05

Request: What MIC value was documented for this molecule, `O=C(O)c1cn(C2CC2)c2cc(C3CCNCC3)c(F)cc2c1=O` ?
Response: 0.2

Request: Then NC1C=C(c2nc3c(cc2F)c(=O)c(C(=O)O)cn3C2CC2)CC1 (configuration not stated) ?
Response: 0.05

---

Test system: Klebsiella pneumoniae
assay-method-text: Antibacterial activity was tested in vitro against Klebsiella pneumoniae MGH-2 using standard microtitration techniques
Format: functional
Reported MIC values for a set of compounds
Write the answer as a number in µg/mL, unit excluded.

O=C(O)c1cn(-c2ccc(F)cc2F)c2nc(C3=CCNCC3)c(F)cc2c1=O ... 0.2
NC1C=C(c2cc3c(cc2F)c(=O)c(C(=O)O)cn3C2CC2)CC1 (stereo unspecified) ... 0.2
O=C(O)c1cn(C2CC2)c2nc(C3=CCNCC3)c(F)cc2c1=O ... 0.05

Request: API: value(readout= MIC, system= Klebsiella pneumoniae, query= `O=C(O)c1cn(C2CC2)c2cc(C3=CCNCC3)c(F)cc2c1=O` )
Response: 0.1

Request: Could you do the same for NC1C=C(c2nc3c(cc2F)c(=O)c(C(=O)O)cn3C2CC2)CC1 (stereo unspecified) , please?
Response: 0.1

Request: Next up: NC1C=C(c2nc3c(cc2F)c(=O)c(C(=O)O)cn3-c2ccc(F)cc2F)CC1 (stereo unspecified)
Response: 0.1

---

System: Staphylococcus aureus
assay-method-text: Antibacterial activity was tested in vitro against Staphylococcus aureus UC-76 using standard microtitration techniques
Format: functional
readout-type: MIC (µg/mL)
Return type: number; implicit unit µg/mL.

Please review the following examples before continuing.
NC1C=C(c2nc3c(cc2F)c(=O)c(C(=O)O)cn3C2CC2)CC1 (stereo unspecified) ... 0.1
O=C(O)c1cn(C2CC2)c2cc(C3CCNCC3)c(F)cc2c1=O ... 0.8

Now, please, on to the next compound.
Request: I'd like to know its MIC. The compound in question is `O=C(O)c1cn(-c2ccc(F)cc2F)c2nc(C3=CCNCC3)c(F)cc2c1=O`
Response: 0.2

These entries and their values trace back to ChEMBL document CHEMBL1126729.
